experiment: in vivo; details: chemotherapeutic index, mouse oral, N. dubius, Table IX
Counter-ions that a name gives are not always drawn.
Is Approx. LD50 /ED50 at least 20? Then YES. If not, NO.

Solved entries (count: 10):
CC(C)(C)C(=O)Nc1cccc(C2CN3CCSC3=N2)c1 (racemic) [m-NH--CO--C(CH3)3 dl]	YES
CCC(CC)C(=O)Nc1cccc(C2CN3CCSC3=N2)c1 (racemic) [m-NH-CO-CH(C2 H5)2 dl]	YES
Nc1ccc([N+](=O)[O-])c(C2CN3CCSC3=N2)c1 (centres unmarked) [R1 =H R4 =NO2]	YES
CC(C)C(=O)Nc1cccc(C2CN3CCSC3=N2)c1 (centres unmarked) [m-NH--CO--CH(CH3)2 l]	YES
COC(=O)Nc1cccc(C2CN3CCSC3=N2)c1 (racemic) [m-NH-CO-OCH3 dl, hydrochloride]	NO
O=C(Nc1cccc(C2CN3CCSC3=N2)c1)c1ccccc1 (racemic) [m-NH-CO dl]	YES
O=CNc1cccc(C2CN3CCSC3=N2)c1 (racemic) [m-NH--HCO dl]	NO
Nc1ccc(Br)c(C2CN3CCSC3=N2)c1 (racemic) [R1 =H R4 =Br, dihydrochloride]	NO
Cl.Cl.Nc1cccc(C2CN3CCSC3=N2)c1 (racemic) [dl-m-aminotetramisole]	NO
CC(C)Nc1cccc(C2CN3CCSC3=N2)c1 (stereo not drawn) [m-NH-CH(CH3)2 dl]	NO

Does CNc1cccc(C2CN3CCSC3=N2)c1.Cl.Cl (stereo not drawn) [m-NH--CH3 dl] have a reported Approx. LD50 /ED50 of at least 20?
NO

Does CC(C)(C)C(=O)Nc1cccc(C2CN3CCSC3=N2)c1 (centres unmarked) [m-NH-CO-C(CH3)2 l] have a reported Approx. LD50 /ED50 of at least 20?
YES

----------
system: Nematospiroides dubius; assay: Anthelmintic efficacy against N. dubius in mice, single oral dose; assay type: in vivo, Nematospiroides dubius (in albino female mice); details: Heligmosomoides polygyrus, po, as Base; single oral dose, mice; > indicates inactive at dose shown; read-out: Approx. ED50
Consider the cut-off 8 mg/kg. If the recorded ED50 is strictly smaller, the label is Satisfied; if not, the label is Not satisfied.

Check if ED50 falls below 8 mg/kg for CNc1ccc(C2CN3CCSC3=N2)cc1 (centres unmarked) [l 2HCl NH--CH3 para, reference compound] .
Not satisfied

Check if ED50 falls below 8 mg/kg for CC(C)C(=O)Nc1cccc(C2CN3C=CSC3=N2)c1 (centres unmarked) [5,6-dihydro HN-CO-CH(CH3)2] .
Satisfied

Check if ED50 falls below 8 mg/kg for Nc1ccccc1C1CN2CCSC2=N1 (racemic) [dl 2HCl NH2 ortho, reference compound] .
Not satisfied

Check if ED50 falls below 8 mg/kg for CC(C)(C)C(=O)Nc1cccc(C2CN3CCSC3=N2)c1 (racemic) [m-NH--CO--C(CH3)3 dl] .
Satisfied

----------
So I've got a bunch of compounds here, and I need their MTD values.
assay: in vivo; settings: dog, sc
Give bare numbers, in mg/kg.

Below, 2 compounds whose answers are already recorded.
Nc1cccc(C2CN3CCSC3=N2)c1 (stereo not shown)	4
Cl.Cl.Nc1cccc(C2CN3CCSC3=N2)c1 (racemic)	5

In the following, a different compound is considered.
Quick one: MTD of CNc1cccc(C2CN3CCSC3=N2)c1.Cl.Cl (stereo not shown) ?
30

----------
test: in vivo; conditions: mouse, in vivo, po, LD50, mice; adjusted to molar equivalents of tetramisole free base
ENDPOINT_NAME: LD50

For every item in the list below, what is its measured LD50?
1. COc1ccc(C(=O)Nc2cccc(C3CN4CCSC4=N3)c2)cc1 (stereo not drawn)
2. CC(C)(C)C(=O)Nc1cccc(C2CN3CCSC3=N2)c1 (stereo not drawn) [m-NH-CO-C(CH3)2 l]

["60 to 80 mg/kg", "~100 mg/kg"]

----------
system: Nematospiroides dubius; assay: Anthelmintic efficacy against N. dubius in mice, single oral dose; type: in vivo, Nematospiroides dubius (in albino female mice); settings: Heligmosomoides polygyrus, po, single oral dose 10 mg./Kg., molar-adjusted; read-out: Percent Nematospiroides Activity
ENDPOINT_NAME: inhibition in vivo at 10 mg/kg (%)
One number for each entry, in %.

Below, 2 molecules whose answers are already recorded.
COc1ccc(CNc2cccc(C3CN4CCSC4=N3)c2)cc1 (stereo not drawn) [Table XII b1718]	40
CC(C)(C)C(=O)Nc1cccc(C2CN3CCSC3=N2)c1 (racemic) [m-NH--CO--C(CH3)3 dl]	88

In the following, a different molecule is considered.
Quick one: inhibition in vivo at 10 mg/kg of O=C(C=Cc1ccccc1)Nc1cccc(C2CN3CCSC3=N2)c1 (stereo not drawn) [Table XII b1827] ?
100

----------
experiment: in vivo; conditions: single oral dose 80 Mg./Kg., mice
Structures can show the parent of a compound that is named as a salt.
ENDPOINT_NAME: Dead/Total

Nc1ccc(Br)c(C2CN3CCSC3=N2)c1 (racemic) [R1 =H R4 =Br, dihydrochloride]	6/6
CCC(CC)C(=O)Nc1cccc(C2CN3CCSC3=N2)c1 (racemic)	0/6
CCCC(=O)Nc1cccc(C2CN3CCSC3=N2)c1 (racemic)	4/5

In the following, a different compound is considered.
Quick one: Dead/Total of CC(C)Nc1cccc(C2CN3CCSC3=N2)c1 (stereo not shown) ?
4/6

----------
test: in vivo; details: single oral dose 20 Mg./Kg., mice
Structures can show the parent of a compound that is named as a salt.
So I've got a bunch of compounds here, and I need their Dead/Total values.

Below, 2 compounds whose answers are already recorded.
Cl.Cl.Nc1cccc(C2CN3CCSC3=N2)c1 (racemic)	10/12
Nc1cccc(C2CN3CCSC3=N2)c1 (centres unmarked)	4/5

For every item in the list below, what is its measured Dead/Total?
1. Nc1ccc(Br)c(C2CN3CCSC3=N2)c1 (racemic) [R1 =H R4 =Br, dihydrochloride]
2. CNc1cccc(C2CN3CCSC3=N2)c1.Cl.Cl (centres unmarked)
3. O=CNc1cccc(C2CN3CCSC3=N2)c1 (racemic)

["0/6", "0/4", "1/10"]

----------
assay: in vivo; conditions: single oral dose 100 Mg./Kg., mice
Counter-ions that a name gives are not always drawn.
ENDPOINT_NAME: Dead/Total

Below, 6 molecules whose answers are already recorded.
CNc1cccc(C2CN3CCSC3=N2)c1.Cl.Cl (stereo not drawn)	2/5
COC(=O)Nc1cccc(C2CN3CCSC3=N2)c1 (stereo not drawn) [m-NH-CO--OCH3 l, hydrochloride]	0/5
CC(C)(C)C(=O)Nc1cccc(C2CN3CCSC3=N2)c1 (stereo not drawn) [m-NH-CO-C(CH3)2 l]	2/6
CC(C)(C)C(=O)Nc1cccc(C2CN3CCSC3=N2)c1 (racemic) [m-NH--CO--C(CH3)3 dl]	2/6
CCCC(=O)Nc1cccc(C2CN3CCSC3=N2)c1 (racemic)	5/5
CCC(=O)Nc1cccc(C2CN3CCSC3=N2)c1 (racemic)	6/6

For every item in the list below, what is its measured Dead/Total?
1. CC(C)Nc1cccc(C2CN3CCSC3=N2)c1 (stereo not drawn)
2. COC(=O)Nc1cccc(C2CN3CCSC3=N2)c1 (racemic) [m-NH-CO-OCH3 dl, hydrochloride]
3. CC(C)C(=O)Nc1cccc(C2CN3CCSC3=N2)c1 (stereo not drawn)

1. 5/6
2. 0/5
3. 8/8

----------
system: Nematospiroides dubius; experiment: Anthelmintic efficacy against N. dubius in mice, single oral dose; type: in vivo, Nematospiroides dubius (in albino female mice); settings: Heligmosomoides polygyrus, po, as Base; single oral dose, mice; > indicates inactive at dose shown; read-out: Approx. ED50
Structures can show the parent of a compound that is named as a salt.
Consider the cut-off 3 mg/kg. If the recorded ED50 is strictly smaller, the label is Fulfilled; if not, the label is Not fulfilled.

CC(C)(C)C(=O)Nc1cccc(C2CN3CCSC3=N2)c1 (stereo not drawn) [m-NH-CO-C(CH3)2 l]	Fulfilled
Cl.Cl.Nc1cccc(C2CN3C=CSC3=N2)c1 (stereo not drawn) [5,6-dihydro m-NH2 dl]	Fulfilled
CNc1cccc(C2CN3CCSC3=N2)c1.Cl.Cl (stereo not drawn)	Not fulfilled

Check if ED50 falls below 3 mg/kg for O=C(Nc1cccc(C2CN3CCSC3=N2)c1)c1ccccc1 (racemic) .
Fulfilled

Check if ED50 falls below 3 mg/kg for CC(=O)Nc1cccc(C2CN3CCSC3=N2)c1 (stereo not drawn) .
Not fulfilled

Check if ED50 falls below 3 mg/kg for Cc1cccc(C2CN3CCSC3=N2)c1 (racemic) [dl HCl CH3 meta, reference compound] .
Not fulfilled

Check if ED50 falls below 3 mg/kg for COc1cccc(C2CN3CCSC3=N2)c1 (racemic) [dl HBr OCH3 meta, reference compound] .
Not fulfilled

Check if ED50 falls below 3 mg/kg for CCC(CC)C(=O)Nc1cccc(C2CN3CCSC3=N2)c1 (racemic) .
Not fulfilled
